SYSTEM NAME: Insulin-like growth factor 1 receptor (Homo sapiens)
Sequence (P08069 31-736 limits assumed): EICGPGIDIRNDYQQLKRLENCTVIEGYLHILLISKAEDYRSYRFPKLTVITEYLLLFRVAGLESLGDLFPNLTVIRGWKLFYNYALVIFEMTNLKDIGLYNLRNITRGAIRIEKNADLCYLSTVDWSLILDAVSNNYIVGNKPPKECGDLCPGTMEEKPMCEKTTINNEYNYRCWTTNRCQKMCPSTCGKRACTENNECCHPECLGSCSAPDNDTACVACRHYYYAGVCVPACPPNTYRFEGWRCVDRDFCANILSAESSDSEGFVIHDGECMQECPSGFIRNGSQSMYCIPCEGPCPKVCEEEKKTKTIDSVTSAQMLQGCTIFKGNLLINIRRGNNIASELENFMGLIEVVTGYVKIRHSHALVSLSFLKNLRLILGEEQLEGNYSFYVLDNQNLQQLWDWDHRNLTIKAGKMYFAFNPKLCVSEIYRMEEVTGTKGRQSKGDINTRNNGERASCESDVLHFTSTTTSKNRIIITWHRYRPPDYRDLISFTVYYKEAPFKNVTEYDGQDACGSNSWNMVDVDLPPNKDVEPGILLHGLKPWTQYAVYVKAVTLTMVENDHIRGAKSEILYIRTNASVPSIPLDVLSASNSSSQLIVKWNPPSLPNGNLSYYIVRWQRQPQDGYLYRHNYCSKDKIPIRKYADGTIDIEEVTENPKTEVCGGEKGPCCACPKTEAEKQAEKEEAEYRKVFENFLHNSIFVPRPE
Sequence (P08069 741-1367 limits assumed): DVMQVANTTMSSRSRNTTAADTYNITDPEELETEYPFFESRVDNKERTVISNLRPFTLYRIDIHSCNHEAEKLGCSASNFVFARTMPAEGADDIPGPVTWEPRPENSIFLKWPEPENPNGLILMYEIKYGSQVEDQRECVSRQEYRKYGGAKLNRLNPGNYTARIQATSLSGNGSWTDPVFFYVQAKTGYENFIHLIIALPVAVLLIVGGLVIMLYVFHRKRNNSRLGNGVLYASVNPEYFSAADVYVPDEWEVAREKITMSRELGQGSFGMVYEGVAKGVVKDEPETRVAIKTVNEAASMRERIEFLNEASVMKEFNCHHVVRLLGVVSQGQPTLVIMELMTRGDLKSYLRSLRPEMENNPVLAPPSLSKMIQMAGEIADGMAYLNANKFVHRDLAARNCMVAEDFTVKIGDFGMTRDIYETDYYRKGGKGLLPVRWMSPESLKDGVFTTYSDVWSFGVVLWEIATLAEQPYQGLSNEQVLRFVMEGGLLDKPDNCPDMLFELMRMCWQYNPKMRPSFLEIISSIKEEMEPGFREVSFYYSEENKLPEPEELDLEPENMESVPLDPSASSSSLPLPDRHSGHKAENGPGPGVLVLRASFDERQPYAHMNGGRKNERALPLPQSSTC
METHOD: Activity at pre-activated human GST-His6-tagged IGF-1R expressed in Sf9 cells assessed as initial phosphorylation rate at 10 uM measured every 2 mins for 60 mins by Michaelis-Menten constant based ADP Quest assay
Peptide text beside a SMILES is read from it.
MEASURED METRIC: Activity (nM/s)

[A] CNC(=O)[C@H](Cc1ccccc1)NC(=O)[C@H](CCC(=O)O)NC(=O)[C@H](Cc1ccccc1)NC(=O)[C@H](Cc1ccc(O)cc1)NC(=O)[C@H](CC(N)=O)NC(C)=O (HELM PEPTIDE1{[ac].N.Y.F.E.F.[CN[*:1]]}$$$$V2.0)
[B] CNC(=O)[C@H](Cc1ccccc1)NC(=O)[C@H](CCC(=O)O)NC(=O)[C@H](Cc1ccccc1)NC(=O)[C@H](Cc1ccc(O)cc1)NC(=O)[C@H]1CCCC[C@@H]1C(=O)O (HELM PEPTIDE1{[O=C(O)[C@H]1CCCC[C@@H]1C(=O)[*:2]].Y.F.E.F.[CN[*:1]]}$$$$V2.0)
For the two items A and B , which reports the higher Activity value? Your answer should be the label of the entry you select.
B
(B: 5.2 nM/s, A: 0.46 nM/s)
